Test system: HepG2
Protocol Description: cytotoxicity call (relative viability < 0.9)
Settings: 10 µM
In all, about 39,000 compounds went through this assay and about 3,300 (8.5%) were called active. Shown is part of a subset that was picked to be rich in actives.
Outcome codes: active, inactive

Structure Smiles	Assay System	Label Value
O=C(C[C@@H]1CC[C@H]2[C@@H](COC[C@H](O)CN2C(=O)Nc2ccc(C(F)(F)F)cc2)O1)NCCc1ccncc1	HepG2	inactive
C[C@@H]1CN([C@@H](C)CO)C(=O)c2cccc(NC(=O)c3nc4ccccc4s3)c2O[C@H]1CN(C)C(=O)Nc1ccc(C(F)(F)F)cc1	HepG2	active
C=CCNC(=O)C(=O)NC[C@H]1OCCCN1S(=O)(=O)c1ccccc1	HepG2	inactive
C[C@H](CO)N1C[C@H](C)[C@@H](CN(C)C(=O)Nc2ccc(C(F)(F)F)cc2)Oc2c(NC(=O)c3nc4ccccc4s3)cccc2C1=O	HepG2	inactive
C[C@@H]1CN([C@@H](C)CO)C(=O)c2cccc(NC(=O)C3CCOCC3)c2O[C@H]1CN(C)C(=O)Nc1ccc2c(c1)OCO2	HepG2	inactive
C[C@H]1CN([C@@H](C)CO)C(=O)c2cc(NS(=O)(=O)c3cccs3)ccc2O[C@H]1CN(C)S(C)(=O)=O	HepG2	inactive
C[C@H]1CN([C@@H](C)CO)C(=O)c2cccc(NC(=O)c3nc4ccccc4s3)c2O[C@@H]1CN(C)C(=O)Nc1ccc(C(F)(F)F)cc1	HepG2	inactive
